Data origin: ChEMBL document CHEMBL4312005

Below: a set of entries, each annotated with reported Activity.
Molecular target: Dual specificity tyrosine-phosphorylation-regulated kinase 3 (Homo sapiens) (UniProt O43781)
Sequence (O43781 whole entry): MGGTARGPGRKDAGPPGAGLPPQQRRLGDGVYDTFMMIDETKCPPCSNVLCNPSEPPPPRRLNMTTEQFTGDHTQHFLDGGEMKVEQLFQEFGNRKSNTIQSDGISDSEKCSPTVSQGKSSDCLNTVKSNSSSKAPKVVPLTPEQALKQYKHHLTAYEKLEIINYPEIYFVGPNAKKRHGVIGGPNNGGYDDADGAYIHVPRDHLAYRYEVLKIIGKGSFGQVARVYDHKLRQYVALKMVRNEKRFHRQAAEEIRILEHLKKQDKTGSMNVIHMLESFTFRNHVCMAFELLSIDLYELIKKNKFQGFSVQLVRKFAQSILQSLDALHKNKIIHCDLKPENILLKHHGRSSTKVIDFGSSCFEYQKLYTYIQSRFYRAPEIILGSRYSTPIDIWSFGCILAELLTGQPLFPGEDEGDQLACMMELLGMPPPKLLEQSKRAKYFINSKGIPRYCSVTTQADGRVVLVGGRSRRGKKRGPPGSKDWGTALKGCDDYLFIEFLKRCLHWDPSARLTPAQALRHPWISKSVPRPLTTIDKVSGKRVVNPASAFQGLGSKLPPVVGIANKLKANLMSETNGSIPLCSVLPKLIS
Assay: Inhibition of DYRK3 (unknown origin) assessed as enzyme activity incubated for 15 mins by [gamma-33]ATP based scintillation counting method relative to control
Set-up: scale not given: the % may be the effect or the level left
recordedMetric: Activity (%)

| molecule | scaleUnit | readoutNumber |
| --- | --- | --- |
| Cc1ccc(NC(=O)c2ccc(CN3CCN(C)CC3)cc2)cc1Nc1nccc(-c2cccnc2)n1 | % | -10 |
| CCC1SCC(=O)N1c1c(C#N)c2n(c1C(=O)Nc1ccccc1)CCC2 (centres undefined) | % | 38 |
| CC(C)C/C=N/c1c(C#N)c2n(c1C(=O)Nc1ccc(Br)cc1)CCC2 | % | -25 |
| CC/C=N/c1c(C#N)c2n(c1C(=O)Nc1ccccc1)CCC2 | % | 33 |

* * *

System: Rattus norvegicus
Experiment: Antiinflammatory activity against albino rats assessed as inhibition of carrageenan-induced paw edema at 0.5 mmol, po measured after 2 hrs relative to control
Type: functional
inhibition (INH) below 20% gives Criterion not met; inhibition (INH) at or above it gives Criterion met.

| compound | categoryLabel |
| --- | --- |
| N#Cc1c(/N=C/c2ccco2)c(C(=O)Nc2ccc(Br)cc2)n2c1CCC2 | Criterion not met |
| CC/C=N/c1c(C#N)c2n(c1C(=O)Nc1ccc(Cl)cc1)CCC2 | Criterion not met |
| N#Cc1c(/N=C/c2ccc(O)cc2)c(C(=O)Nc2ccc(Br)cc2)n2c1CCC2 | Criterion met |
| CCC1SCC(=O)N1c1c(C#N)c2n(c1C(=O)Nc1ccc(Cl)cc1)CCC2 (stereo not given) | Criterion met |
| CC(C)C/C=N/c1c(C#N)c2n(c1C(=O)Nc1ccc(Br)cc1)CCC2 | Criterion not met |

* * *

Let's look at some compounds and their measured Activity.
Molecular target: Mitogen-activated protein kinase kinase kinase 5 (Homo sapiens) (UniProt Q99683)
Sequence (Q99683 whole entry, the tested form may be a part): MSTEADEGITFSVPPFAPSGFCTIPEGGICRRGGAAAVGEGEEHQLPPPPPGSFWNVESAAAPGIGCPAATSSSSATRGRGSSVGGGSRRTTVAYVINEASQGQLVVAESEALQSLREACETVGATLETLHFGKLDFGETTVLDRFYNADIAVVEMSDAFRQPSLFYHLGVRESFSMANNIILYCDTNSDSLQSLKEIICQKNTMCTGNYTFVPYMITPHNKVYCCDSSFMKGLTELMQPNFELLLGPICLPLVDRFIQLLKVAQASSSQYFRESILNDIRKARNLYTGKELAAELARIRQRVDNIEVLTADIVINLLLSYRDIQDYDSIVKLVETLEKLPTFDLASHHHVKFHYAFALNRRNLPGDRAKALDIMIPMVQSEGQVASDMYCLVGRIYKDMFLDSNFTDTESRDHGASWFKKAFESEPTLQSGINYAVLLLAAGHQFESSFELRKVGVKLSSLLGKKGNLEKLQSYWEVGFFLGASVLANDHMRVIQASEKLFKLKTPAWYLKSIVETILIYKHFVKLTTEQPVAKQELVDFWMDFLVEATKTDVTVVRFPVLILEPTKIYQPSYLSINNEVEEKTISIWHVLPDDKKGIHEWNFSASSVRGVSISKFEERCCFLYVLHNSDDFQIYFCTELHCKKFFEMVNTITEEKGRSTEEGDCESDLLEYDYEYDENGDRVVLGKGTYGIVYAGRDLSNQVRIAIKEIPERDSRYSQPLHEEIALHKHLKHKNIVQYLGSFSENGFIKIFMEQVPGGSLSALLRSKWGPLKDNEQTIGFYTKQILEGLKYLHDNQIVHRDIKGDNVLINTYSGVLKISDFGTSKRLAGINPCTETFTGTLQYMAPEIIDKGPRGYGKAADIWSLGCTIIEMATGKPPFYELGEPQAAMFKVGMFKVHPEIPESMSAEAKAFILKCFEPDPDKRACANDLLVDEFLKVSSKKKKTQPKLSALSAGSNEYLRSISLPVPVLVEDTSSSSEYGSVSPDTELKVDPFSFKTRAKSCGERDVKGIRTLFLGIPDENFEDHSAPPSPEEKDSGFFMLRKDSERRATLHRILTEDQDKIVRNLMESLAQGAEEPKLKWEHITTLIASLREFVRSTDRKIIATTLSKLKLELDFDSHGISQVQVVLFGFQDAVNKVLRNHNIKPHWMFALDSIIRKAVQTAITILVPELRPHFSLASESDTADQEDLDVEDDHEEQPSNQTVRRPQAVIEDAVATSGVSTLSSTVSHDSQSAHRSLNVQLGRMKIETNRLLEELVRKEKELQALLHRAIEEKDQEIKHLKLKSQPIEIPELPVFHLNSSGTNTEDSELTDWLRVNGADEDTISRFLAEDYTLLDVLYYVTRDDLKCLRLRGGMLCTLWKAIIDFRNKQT
Experiment: Inhibition of recombinant human N-terminal GST-tagged ASK1 (649 to 946 residues) expressed in baculovirus infected Sf9 insect cells assessed as enzyme activity incubated for 15 mins by [gamma-33]ATP based scintillation counting method relative to control
Design: scale not given: the % may be the effect or the level left

| compound | Activity |
| --- | --- |
| CC(C)C/C=N/c1c(C#N)c2n(c1C(=O)Nc1ccc(Br)cc1)CCC2 | 26% |
| CC/C=N/c1c(C#N)c2n(c1C(=O)Nc1ccccc1)CCC2 | -14% |
| Cc1ccc(NC(=O)c2ccc(CN3CCN(C)CC3)cc2)cc1Nc1nccc(-c2cccnc2)n1 | 5% |
| CCC1SCC(=O)N1c1c(C#N)c2n(c1C(=O)Nc1ccccc1)CCC2 (centres undefined) | -3% |

* * *

Test system: MCF7
Assay: Cell cycle arrest in human MCF7 cells assessed as G2/M phase accumulation at 5 uM incubated for 24 hrs by propidium iodide based flow cytometry (reference value: 17.2 to 26.8 %)
Type: functional

| compound | system | Activity |
| --- | --- | --- |
| N#Cc1c(/N=C/c2ccco2)c(C(=O)Nc2ccc(Br)cc2)n2c1CCC2 | MCF7 | 21.8% |
| N#Cc1c(/N=C/c2ccc(O)cc2)c(C(=O)Nc2ccc(Br)cc2)n2c1CCC2 | MCF7 | 22% |
| CCC1SCC(=O)N1c1c(C#N)c2n(c1C(=O)Nc1ccccc1)CCC2 (centres undefined) | MCF7 | 15.8% |
| CC(C)C/C=N/c1c(C#N)c2n(c1C(=O)Nc1ccc(Br)cc1)CCC2 | MCF7 | 14.4% |

* * *

Tested on: MCF7
Assay: Induction of apoptosis in human MCF7 cells assessed as viable cells at 1 uM incubated for 24 hrs by annexin V FITC and propidium iodide staining based flow cytometry (reference value: 76 to 95.9 %)
Type: functional
Settings: MCF7, 24 h, read-out: Activity

| compound | system | viability at 1 µM |
| --- | --- | --- |
| CCC1SCC(=O)N1c1c(C#N)c2n(c1C(=O)Nc1ccccc1)CCC2 (centres undefined) | MCF7 | 80.1% |
| N#Cc1c(/N=C/c2ccc(O)cc2)c(C(=O)Nc2ccc(Br)cc2)n2c1CCC2 | MCF7 | 65.7% |
| CC(C)C/C=N/c1c(C#N)c2n(c1C(=O)Nc1ccc(Br)cc1)CCC2 | MCF7 | 55.4% |
| N#Cc1c(/N=C/c2ccco2)c(C(=O)Nc2ccc(Br)cc2)n2c1CCC2 | MCF7 | 67% |

* * *

Test system: MCF7
Assay: Cell cycle arrest in human MCF7 cells assessed as G1 accumulation at 5 uM incubated for 24 hrs by propidium iodide based flow cytometry (reference value: 49.6 to 55.1 %)
Assay type: functional
Recorded Activity for the following compounds

| compound | Activity |
| --- | --- |
| CCC1SCC(=O)N1c1c(C#N)c2n(c1C(=O)Nc1ccccc1)CCC2 (centres undefined) | 59.4% |
| N#Cc1c(/N=C/c2ccc(O)cc2)c(C(=O)Nc2ccc(Br)cc2)n2c1CCC2 | 28.9% |
| N#Cc1c(/N=C/c2ccco2)c(C(=O)Nc2ccc(Br)cc2)n2c1CCC2 | 25.5% |
| CC(C)C/C=N/c1c(C#N)c2n(c1C(=O)Nc1ccc(Br)cc1)CCC2 | 30.2% |

* * *

# selectivity ratio annotations
Assay: Selectivity index, ratio of IC50 for cytotoxicity against human MRC5 cells to IC50 for antiproliferative activity against human MCF7 cells
Conditions: MRC5 cells versus MCF7 cells
recordedMetric: selectivity ratio

| compound | result |
| --- | --- |
| N#Cc1c(/N=C/c2ccc(Cl)cc2)c(C(=O)Nc2ccc(Br)cc2)n2c1CCC2 | 2 to 52 |
| N#Cc1c(/N=C/c2ccccc2)c(C(=O)Nc2ccc(Br)cc2)n2c1CCC2 | 2 to 52 |
| N#Cc1c(/N=C/c2cccs2)c(C(=O)Nc2ccc(Br)cc2)n2c1CCC2 | 1 to 10 |
| CCC1SCC(=O)N1c1c(C#N)c2n(c1C(=O)Nc1ccc(Cl)cc1)CCC2 (stereo not given) | 3 to 15 |
| N#Cc1c(/N=C/c2cccnc2)c(C(=O)Nc2ccc(Br)cc2)n2c1CCC2 | 1 to 10 |

* * *

Test system: MCF7
Assay: Induction of apoptosis in human MCF7 cells assessed as necrotic cells at 5 uM incubated for 24 hrs by annexin V FITC and propidium iodide staining based flow cytometry (reference value: 4.1 to […])
Assay type: functional

| compound | scaleUnit | Activity |
| --- | --- | --- |
| N#Cc1c(/N=C/c2ccco2)c(C(=O)Nc2ccc(Br)cc2)n2c1CCC2 | % | 15.2 |
| N#Cc1c(/N=C/c2ccc(O)cc2)c(C(=O)Nc2ccc(Br)cc2)n2c1CCC2 | % | 17.8 |
| CCC1SCC(=O)N1c1c(C#N)c2n(c1C(=O)Nc1ccccc1)CCC2 (centres undefined) | % | 0.9 |
| CC(C)C/C=N/c1c(C#N)c2n(c1C(=O)Nc1ccc(Br)cc1)CCC2 | % | 13.4 |

* * *

Tested on: MCF7
Test: Cell cycle arrest in human MCF7 cells assessed as G1 accumulation at 10 uM incubated for 24 hrs by propidium iodide based flow cytometry (reference value: 49.6 to 55.1 %)
Assay type: functional

| compound | system | scaleUnit | Activity |
| --- | --- | --- | --- |
| CCC1SCC(=O)N1c1c(C#N)c2n(c1C(=O)Nc1ccccc1)CCC2 (centres undefined) | MCF7 | % | 59.1 |
| N#Cc1c(/N=C/c2ccco2)c(C(=O)Nc2ccc(Br)cc2)n2c1CCC2 | MCF7 | % | 25 |
| CC(C)C/C=N/c1c(C#N)c2n(c1C(=O)Nc1ccc(Br)cc1)CCC2 | MCF7 | % | 29.6 |
| N#Cc1c(/N=C/c2ccc(O)cc2)c(C(=O)Nc2ccc(Br)cc2)n2c1CCC2 | MCF7 | % | 27.9 |

* * *

Quick reference for Activity among some compounds
System: MCF7
Experiment: Induction of apoptosis in human MCF7 cells assessed as necrotic cells at 1 uM incubated for 24 hrs by annexin V FITC and propidium iodide staining based flow cytometry (reference value: 4.1 to […])
Format: functional

| compound | system | Activity [%] |
| --- | --- | --- |
| CC(C)C/C=N/c1c(C#N)c2n(c1C(=O)Nc1ccc(Br)cc1)CCC2 | MCF7 | 20.8 |
| N#Cc1c(/N=C/c2ccco2)c(C(=O)Nc2ccc(Br)cc2)n2c1CCC2 | MCF7 | 11.4 |
| N#Cc1c(/N=C/c2ccc(O)cc2)c(C(=O)Nc2ccc(Br)cc2)n2c1CCC2 | MCF7 | 14.3 |
| CCC1SCC(=O)N1c1c(C#N)c2n(c1C(=O)Nc1ccccc1)CCC2 (centres undefined) | MCF7 | 1 |

* * *

Tested on: MCF7
Assay: Induction of apoptosis in human MCF7 cells assessed as early apoptotic cells at 5 uM incubated for 24 hrs by annexin V FITC and propidium iodide staining based flow cytometry (reference value: 0 to 9 %)
Assay type: functional
recordedMetric: Activity

| molecule | recordedMetric | result |
| --- | --- | --- |
| CCC1SCC(=O)N1c1c(C#N)c2n(c1C(=O)Nc1ccccc1)CCC2 (centres undefined) | Activity | 14.3% |
| N#Cc1c(/N=C/c2ccc(O)cc2)c(C(=O)Nc2ccc(Br)cc2)n2c1CCC2 | Activity | 8.6% |
| CC(C)C/C=N/c1c(C#N)c2n(c1C(=O)Nc1ccc(Br)cc1)CCC2 | Activity | 16.5% |
| N#Cc1c(/N=C/c2ccco2)c(C(=O)Nc2ccc(Br)cc2)n2c1CCC2 | Activity | 11.5% |
